# target of assay: human NTPDase8 (Homo sapiens, UniProt Q5MY95)
# Construct: expressed in transfected cells; host or cells: COS-7 cells (membrane preparation)
# Sequence (Q5MY95 1-495): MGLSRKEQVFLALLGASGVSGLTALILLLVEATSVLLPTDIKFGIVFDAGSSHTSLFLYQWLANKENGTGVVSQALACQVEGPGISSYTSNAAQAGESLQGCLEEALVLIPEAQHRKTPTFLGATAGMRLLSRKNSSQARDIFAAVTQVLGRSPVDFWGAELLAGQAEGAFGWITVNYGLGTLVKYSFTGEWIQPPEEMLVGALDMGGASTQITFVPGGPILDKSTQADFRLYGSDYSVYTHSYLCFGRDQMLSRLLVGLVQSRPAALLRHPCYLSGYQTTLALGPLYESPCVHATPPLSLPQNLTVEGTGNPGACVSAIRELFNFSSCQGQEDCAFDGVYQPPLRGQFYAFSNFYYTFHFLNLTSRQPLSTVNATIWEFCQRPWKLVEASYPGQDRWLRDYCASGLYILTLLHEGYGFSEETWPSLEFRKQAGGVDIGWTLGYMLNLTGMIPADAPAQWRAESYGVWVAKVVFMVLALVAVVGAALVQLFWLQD
# experiment: Malachite green assay, human NTPDase8
# Format: biochemical
# reported conditions: 2 μM compound; 100 µM ATP; COS-7 membrane preparation; read-out: % inhibition at 2 μM concentration, NTPDase8
Let's look at some molecules and their measured inhibition at 2 µM.
I only need the number, in %, no unit after it.

// known answers, use as guide
molecule | target of assay | inhibition at 2 µM (%)
Nc1c(S(=O)(=O)O)cc(Nc2cccc(Br)c2)c2c1C(=O)c1ccccc1C2=O | human NTPDase8 (Homo sapiens, UniProt Q5MY95) | -26
Cc1cccc(Nc2cc(S(=O)(=O)O)c(N)c3c2C(=O)c2ccccc2C3=O)c1 [Compound 6, reference compound] | human NTPDase8 (Homo sapiens, UniProt Q5MY95) | -21
Nc1c(S(=O)(=O)O)cc(NCc2ccccc2)c2c1C(=O)c1ccccc1C2=O | human NTPDase8 (Homo sapiens, UniProt Q5MY95) | 3

Alright, here's another molecule for you.
// returns reported inhibition at 2 µM for input Nc1c(S(=O)(=O)O)cc(NCCc2ccccc2)c2c1C(=O)c1ccccc1C2=O
-3

----------
Where a name gives a salt, the structure may show the parent alone.
readout name: melting point

Suppose we examine the compound Nc1c(S(=O)(=O)[O-])cc(Nc2cccc(F)c2C(=O)O)c2c1C(=O)c1ccccc1C2=O.[Na+] ; what melting point value has been reported?
> 300 °C

Item under review: Nc1c(S(=O)(=O)O)cc(Nc2ccc(Sc3ccccc3)c(Cl)c2)c2c1C(=O)c1ccccc1C2=O (as salt: sodium) . Reported melting point?
> 300 °C

Tell me the measured melting point of CCc1cccc(Nc2cc(Br)c(N)c3c2C(=O)c2ccccc2C3=O)c1 , please.
229 to 230 °C

----------
# target of assay: human NTPDase2 (Homo sapiens)
# Construct: expressed in transfected cells; host or cells: COS-7 cells (membrane preparation)
# Sequence (Q9Y5L3 whole entry): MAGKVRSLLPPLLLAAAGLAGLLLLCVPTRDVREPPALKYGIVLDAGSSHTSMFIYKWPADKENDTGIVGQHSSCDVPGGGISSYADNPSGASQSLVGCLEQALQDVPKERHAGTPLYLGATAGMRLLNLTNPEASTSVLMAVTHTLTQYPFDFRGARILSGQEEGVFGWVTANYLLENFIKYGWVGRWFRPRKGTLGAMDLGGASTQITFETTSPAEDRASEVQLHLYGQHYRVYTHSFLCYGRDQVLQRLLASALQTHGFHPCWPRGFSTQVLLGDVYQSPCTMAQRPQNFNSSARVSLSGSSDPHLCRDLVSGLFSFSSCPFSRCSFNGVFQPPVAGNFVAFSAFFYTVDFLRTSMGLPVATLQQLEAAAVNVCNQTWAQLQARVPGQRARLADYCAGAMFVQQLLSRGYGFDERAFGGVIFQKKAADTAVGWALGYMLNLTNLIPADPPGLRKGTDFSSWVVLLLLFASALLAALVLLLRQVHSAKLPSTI
# experiment: Malachite green assay, human NTPDase2
# Type: biochemical
# reported conditions: 2 μM compound; 100 µM ATP; COS-7 membrane preparation; read-out: % inhibition at 2 μM concentration, NTPDase2
Kindly return t if reported inhibition at 2 µM is no lower than 10%; return f if it is lower.

Previously resolved entries follow.
molecule | group label
Nc1c(Br)cc(Nc2cccc(C(=O)O)c2)c2c1C(=O)c1ccccc1C2=O | f
Nc1c(S(=O)(=O)[O-])cc(Nc2cccc(I)c2)c2c1C(=O)c1ccccc1C2=O.[Na+] | t
Nc1c(S(=O)(=O)O)cc(NCc2ccccc2)c2c1C(=O)c1ccccc1C2=O | t

Assess whether reported inhibition at 2 µM for Nc1c(S(=O)(=O)O)cc(Nc2cccc([N+](=O)[O-])c2)c2c1C(=O)c1ccccc1C2=O sits at 10% or higher.
t

Hi, just wondering whether Nc1c(S(=O)(=O)O)cc(Nc2ccc3cc(C(=O)O)ccc3c2)c2c1C(=O)c1ccccc1C2=O shows inhibition at 2 µM of 10% or higher.
t

Is the recorded value of inhibition at 2 µM equal to or greater than 10% for this molecule? Nc1c(S(=O)(=O)O)cc(Nc2cccc(Br)c2)c2c1C(=O)c1ccccc1C2=O
t

Item Nc1cc(Nc2cc(S(=O)(=O)O)c(N)c3c2C(=O)c2ccccc2C3=O)ccc1S(=O)(=O)O with inhibition at 2 µM of 10% or above?
f

Is inhibition at 2 µM at least 10%? Consider Nc1c(S(=O)(=O)O)cc(Nc2ccccc2)c2c1C(=O)c1ccccc1C2=O
t

inhibition at 2 µM >= 10% for Nc1c(S(=O)(=O)O)cc(Nc2ccc(O)c(C(=O)O)c2)c2c1C(=O)c1ccccc1C2=O ?
t
